- tested target: SARS-CoV-2 spike S1 subunit (SARS-CoV-2, UniProt P0DTC2 P0DTC2:14-685)
- measurement protocol: filter
property name: pKd
Kindly note that pKd refers to -log10 of the concentration in mol/L and answer with the value alone.

(Q) Given the binder TMSA52T8 (ssDNA, three identical arms joined by Trebler, root TTTTT-Biotin) DNA: CGAAGCATCTCGTGTCACTCCGTAGGGTTTGGCTCCGGGCCTGGCGTCGTTTTTCTCTCGC , what is its reported pKd?
(A) 9.68

(Q) Also CGAAGCATCTCGTGTCACTCCGTAGGGTTTGGCTCCGGGCCTGGCGTCG (ssDNA) [MSA52T8] , if possible.
(A) 8.19
